The measured values listed here are drawn from PubChem BioAssay (NCI).

- Tested on: 786-0 renal
- MEASUREMENT PROTOCOL: NCI-60 one-dose screen, 48 h
- MEASUREMENT SETUP: 10 µM unless noted
- Experimental: Cells are grown in 96 well plates and exposed to the test compound for 48 hours. Compounds are tested at a single concentration, which is 10^-5 M for most compounds. The reported endpoint is percent growth (GI% or GIPRCNT), where numbers from 0 - 100% represent growth inhibition, and numbers from -100% - 0 represent cell death. For example, a value of 40 represents 60% growth inhibition. A value of 0 means no net growth occurred over the course of the experiment. […]
Compounds without any hit were thinned out: in the full panel of roughly 83,000, 20% have a hit. The source made the active and inactive calls. How the source made its calls: active means growth percent below 10; inactive means the rest.
Pick one and only one: true (1) = active, false (0) = inactive

// known answers, use as guide
# MOLECULE, EXPERIMENTAL TARGET, CLASS LABEL
data = [
    ("NS(=O)(=O)c1cc(Br)c2c(c1)S(=O)(=O)NCN2", "786-0 renal", "false (0)"),
    ("O=C(COc1cccc(/C=C2\\COc3ccccc3C2=O)c1)c1ccccc1", "786-0 renal", "false (0)"),
    ("COc1cc(/C=C/C(=O)C(=Cc2ccc(F)c(F)c2)C(=O)/C=C/c2ccc(O)c(OC)c2)ccc1O", "786-0 renal", "false (0)"),
    ("Cc1ccc(S(=O)(=O)N2CCc3ccc(O)c4c3C2Cc2cc(Cl)ccc2-4)cc1 (stereo not given)", "786-0 renal", "false (0)"),
    ("O=[N+]([O-])c1ccc2nc(N/N=C/c3ccc(O)cc3)sc2c1", "786-0 renal", "false (0)"),
    ("Clc1ccc(C2=Nc3cccc4cccc(c34)N2)cc1Cl", "786-0 renal", "false (0)"),
    ("CC1(C)CC(=O)C2=C(C1)Nc1cc3c(cc1C2c1ccc(F)cc1)OCO3 (stereo not given)", "786-0 renal", "false (0)"),
    ("CC1SC(c2cccc(Oc3ccccc3)c2)N(CCc2cccs2)C1=O (stereo not given)", "786-0 renal", "true (1)"),
    ("COC(=O)c1c2c(c(C)[n+]([O-])c1C)C(=O)C=C(NCc1ccc(Cl)cc1)C2=O", "786-0 renal", "true (1)"),
]

So what was the verdict on Cc1cc(C)c(S(=O)O)c(C)c1 in this test?
false (0)
